In this section we review reported Js of S-FP values for a set of compounds.
ASSAY_COMMENT: In vitro permeation experiment of FP drug-in-adhesive patches in two-chamber diffusion cells
Type: in vitro ADME, rabbit
CONDITION: permeant S-FP; patch 5% drug (w/w); enhancer equimolar to 5% 4-TER (control: no enhancer); mean ± SD, n = 4
VALUE_KIND: Js of S-FP

>  <COMPOUND>
CCCCCCCCC=CCCCCCCCC(=O)OC1(C(C)C)CC=C(C)CC1 (stereo not drawn) [l-4-T-dC18]

>  <RESULT>
12.98 ± 3.51 μg/cm^2/h

$$$$
>  <COMPOUND>
CCCCCCCCCCCCCC(=O)OC1(C(C)C)CC=C(C)CC1 (stereo not drawn) [d-4-T-C14]

>  <RESULT>
7.75 ± 1.68 μg/cm^2/h

$$$$
>  <COMPOUND>
CC1=CCC(O)(C(C)C)CC1 (stereo not drawn) [d-4-TER, d-4-terpineol, reference compound]

>  <RESULT>
7.60 ± 1.47 μg/cm^2/h

$$$$
>  <COMPOUND>
CC1=CC[C@@](O)(C(C)C)CC1 [l-4-TER, l-4-terpineol, reference compound]

>  <RESULT>
6.02 ± 0.99 μg/cm^2/h

$$$$
>  <COMPOUND>
CCCCCCCCC=CCCCCCCCC(=O)OC1(C(C)C)CC=C(C)CC1 (stereo not drawn) [d-4-T-dC18]

>  <RESULT>
10.99 ± 2.17 μg/cm^2/h

$$$$
>  <COMPOUND>
C[C@H](C(=O)O)c1ccc(-c2ccccc2)c(F)c1

>  <RESULT>
2.65 ± 0.29 μg/cm^2/h

$$$$
>  <COMPOUND>
CCCCCCC(=O)OC1(C(C)C)CC=C(C)CC1 (stereo not drawn) [l-4-T-C7]

>  <RESULT>
3.00 ± 0.69 μg/cm^2/h

$$$$
>  <COMPOUND>
CCCCCCCCCCCCCC(=O)OC1(C(C)C)CC=C(C)CC1 (stereo not drawn) [l-4-T-C14]

>  <RESULT>
6.80 ± 0.50 μg/cm^2/h

$$$$
>  <COMPOUND>
CCCCCCC(=O)OC1(C(C)C)CC=C(C)CC1 (stereo not drawn) [d-4-T-C7]

>  <RESULT>
4.39 ± 0.49 μg/cm^2/h

$$$$
